test-target: T1, mouse IL-25 (mouse, UniProt Q8VHH8 17-169, limits assumed)
T1 construct: In-house production
T1 sequence (looked up): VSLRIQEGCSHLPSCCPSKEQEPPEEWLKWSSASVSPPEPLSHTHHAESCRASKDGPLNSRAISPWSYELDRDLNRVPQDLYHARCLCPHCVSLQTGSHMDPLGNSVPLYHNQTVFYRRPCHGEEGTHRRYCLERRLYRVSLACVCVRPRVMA
method: ELISA, plate coated with mouse IL-25, OD450, Example 7; unit from the axis lg(nM) [panel Mouse IL-25]
experimental-readout: EC50 (nM)
Answer in nM, number only, no unit symbol.

Here's what some known entries look like.
VH1-1 + VL2-1 (humanized anti-IL-25 antibody formed by VH1-1 and VL2-1) (antibody, V domains shown) VH: QVTLKESGPTLVKPTQTLTLTCTFSGFSLSTSGMGLGWIRQPPGKALEWLAHIWWDDVKHYKPALKSRLTITKDTSKNQVVLTMTNVDPVDTATYYCARMGQLHYYGYDYAMDYWGQGTLVTVSS VL: DIQLTQSPSFLSASVGDRVTITCSASSSVSYMYWYQQKPGKAPKPLIYRTSNLASGVPSRFSGSGSGTEYTLTISSMQPEDFATYYCQLYHSYPPTWTFGQGTKLEIK    0.153
VH2-1 + VL2-1 (humanized anti-IL-25 antibody formed by VH2-1 and VL2-1) (antibody, V domains shown) VH: QVTLRESGPALLKPTQTLTLTCTFSGFSLSTSGMGLGWIRQPPGKALEWLAHIWWDDVKHYKPALKSRLTISKDTSKNQVVLTITNVDPVDTATYYCARMGQLHYYGYDYAMDYWGQGTLVTVSS VL: DIQLTQSPSFLSASVGDRVTITCSASSSVSYMYWYQQKPGKAPKPLIYRTSNLASGVPSRFSGSGSGTEYTLTISSMQPEDFATYYCQLYHSYPPTWTFGQGTKLEIK    0.244
VH2-1 + VL1-2 (humanized anti-IL-25 antibody formed by VH2-1 and VL1-2) (antibody, V domains shown) VH: QVTLRESGPALLKPTQTLTLTCTFSGFSLSTSGMGLGWIRQPPGKALEWLAHIWWDDVKHYKPALKSRLTISKDTSKNQVVLTITNVDPVDTATYYCARMGQLHYYGYDYAMDYWGQGTLVTVSS VL: EIVLTQSPATLSASPGERVTISCSASSSVSYMYWYQQKPGQAPRPLIYRTSNLASGVPARFSGSGSGTDYTLTISSMEPEDFATYYCQLYHSYPPTWTFGQGTKLEIK    0.231
murine anti-IL-25 monoclonal antibody 18H3 (antibody, V domains shown, also called parental antibody; parental murine mAb) VH: QVTLKESGPGILQPSQTLSLTCSFSGFSLSTSGMGLGWIRQPSGKGLEWLAHIWWDDVKHYKPALKSRLTISKDISSSQVFLTIASVDTADTATYYCARMGQLHYYGYDYAMDYWGQGTSVTVSS VL: QIVLTQSPAIMSASPGEKVTISCSASSSVSYMYWYQQKPGSSPKPWIYRTSNLASGVPARFSGSGSGTSYSLTISSMEAEDAATYYCQLYHSYPPTWTFGGGTKLEIK    0.329
VH1-1 + VL1-2 (humanized anti-IL-25 antibody formed by VH1-1 and VL1-2) (antibody, V domains shown, Captured by anti-human Fc gamma antibody in SPR) VH: QVTLKESGPTLVKPTQTLTLTCTFSGFSLSTSGMGLGWIRQPPGKALEWLAHIWWDDVKHYKPALKSRLTITKDTSKNQVVLTMTNVDPVDTATYYCARMGQLHYYGYDYAMDYWGQGTLVTVSS VL: EIVLTQSPATLSASPGERVTISCSASSSVSYMYWYQQKPGQAPRPLIYRTSNLASGVPARFSGSGSGTDYTLTISSMEPEDFATYYCQLYHSYPPTWTFGQGTKLEIK    0.242

# ---- query binder ----
Notebook: VH1-2-VL2-1 (antibody, V domains shown, also called antibody formed by VH1-2 and VL2-1; copies: 2 + 2) VH: QVTLKESGPTLLKPTQTLTLTCTFSGFSLSTSGMGLGWIRQPPGKALEWLAHIWWDDVKHYKPALKSRLTITKDTSKNQVVLTITNVDPVDTATYYCARMGQLHYYGYDYAMDYWGQGTLVTVSS VL: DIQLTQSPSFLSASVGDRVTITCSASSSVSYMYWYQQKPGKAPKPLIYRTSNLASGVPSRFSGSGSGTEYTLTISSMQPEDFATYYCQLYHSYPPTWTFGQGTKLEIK , EC50 read as 0.215
